pEC50 by entry:
test.target: T1, human CEA protein on the cell surface (human, UniProt P06731 35-685)
T1 construct: whole, on cells; also called CEACAM-5; CD66e
T1 sequence (looked up): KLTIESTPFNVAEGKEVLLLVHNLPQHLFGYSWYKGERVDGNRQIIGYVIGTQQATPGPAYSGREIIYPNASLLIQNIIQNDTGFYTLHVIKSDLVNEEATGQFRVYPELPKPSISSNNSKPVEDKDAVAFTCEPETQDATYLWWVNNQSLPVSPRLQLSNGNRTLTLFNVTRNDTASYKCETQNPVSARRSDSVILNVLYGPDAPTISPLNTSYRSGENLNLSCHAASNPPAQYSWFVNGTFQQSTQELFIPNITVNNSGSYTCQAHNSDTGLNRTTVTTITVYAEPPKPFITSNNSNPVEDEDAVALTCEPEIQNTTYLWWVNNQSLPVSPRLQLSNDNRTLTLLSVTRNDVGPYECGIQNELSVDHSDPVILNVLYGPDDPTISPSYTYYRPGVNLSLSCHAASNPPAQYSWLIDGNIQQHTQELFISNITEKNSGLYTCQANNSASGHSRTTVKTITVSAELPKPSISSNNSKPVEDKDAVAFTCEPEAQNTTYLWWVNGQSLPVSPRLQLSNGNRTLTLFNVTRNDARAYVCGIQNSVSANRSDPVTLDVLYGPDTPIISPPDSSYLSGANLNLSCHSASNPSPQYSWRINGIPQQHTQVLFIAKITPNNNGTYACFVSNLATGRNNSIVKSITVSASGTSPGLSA
experiment.notes: FACS, MKN45 cells
pEC50 is defined as minus the log10 of a concentration measured in mol/L.

binder	pEC50
mAb63 (antibody, V domains shown, Murine hybridoma antibody) VH: EVQLQQSGPELVKPGASVKMSCKASGYTFTDFYMNWVRQSHGKSLEWIGDIFPKNGNTDYNRKFKDKATLTVDKSSNTVYMEFRSLTLEDSAIYFCARSGYGNYVFDYWGQGTIFTVSS VL: DVQMTQTPSALSASLGDRVTISCRTSQDINIYLNWYQQKPDGTVKLLIYYRSGLLSGVPSRFSGSGSGTDYSLTISNLEPEDIATYFCQQGNTLPPTFGGGTKLEIK	8.44
mAb103 (antibody, V domains shown, Murine hybridoma antibody) VH: QIQLVQSGPELKKPGETVKISCKASGYTFTTYGVIWVKQAPGKGLKWMGWINTYSGVPTYADDFKGRFAFSLETSASTAFLQINNLKNEDTATYFCARKKTLTTVTPWFAYWGQGTLVTVSA VL: DLVVTQSSSASFSLGASAKLTCTLSSQHSTYTIEWYQQQPLKPPKYVMELKKDGSHSTGDGIPDRFSGSSSGADRYLTISNIQPEDEAIYICGVGNTIKEQFVYVFGGGTKVTVL	8.40
mAb47 (antibody, V domains shown, Murine hybridoma antibody) VH: QIQLVQSGPELKKPGETVKISCKASGYTFTTYGMSWVKQAPGKGLKWMGWINTYSGVPTYADDFKGRFAFSLETSASTAYLQINNLKNEDTATYFCARRGNYGRWDFDVWGTGTTVTVSS VL: EIVLTQSPALMAASPGEKVTITCSVSSTISSSNLHWYQQKSETSPKPWIYGTSNLASGVPVRFSGSGSGTSYSLTISSMEAEDAATYYCQQWSIYPLTFGAGTKLELK	8.68

// next item, pEC50 requested
# input For the binder shown here, mAb67 (antibody, V domains shown, Murine hybridoma antibody) VH: EVQLQQSGPELVKPGASVKIYCKASGYTFTDYHMNWVKQSHGKSLEWIGDINPDIGGTSYNQNFKGKATLTVDKSSSTAYMELRSLTSEDSAVYYCSRWDFDSFANWGQGTLVTVSA VL: DIVMTQSPASLAMSLGKRATISCRASESVSIIGTNLIHWYQQKPGQPPKLLIYHASNLETGVPARFSGSGSGADFTLTIDPVEGDDVALYYCLQSRKIPYTFGGGTKMEIK , give the reported pEC50.
# output 8.72
